- System: SF-268 CNS
- Assay notes: NCI-60 one-dose screen, 48 h (100 = growth as untreated, 0 = no growth, -100 = all killed)
- Experimental setup: 10 µM unless noted
About 83,000 compounds went through this panel and 20% of them were active in at least one assay; those are over-represented in the sample as a whole. Activity calls are given as the source filed them. The calls were made as follows: active = growth percent below 10; inactive = the rest.
Assay readout: growth

C=C1CC[C@@H]2[C@]3(C)COC(c4cn[nH]c4-c4cccc(Cl)c4)O[C@@H]3CC[C@@]2(C)[C@@H]1C/C=C1/C(=O)OCC1O (some centres not stated) = 34.3% (inactive)

Enquiry: Please report the recorded growth for COc1ccc(C(=O)/C=C/c2ccc3ccccc3c2)cc1S(N)(=O)=O .
Return: 12.8% (inactive)

Enquiry: Please report the recorded growth for O=C(NNc1ccccc1)n1c(=O)c2ccccc2c(=O)n1-c1ccccc1 .
Return: 92.8% (inactive)

Enquiry: Please report the recorded growth for COc1ccc(/C=C/c2nc3ccccc3n3c(-c4ccc(Cl)cc4)nnc23)cc1 .
Return: 79.4% (inactive)

Enquiry: Please report the recorded growth for Cc1cc2nc3c4ccccc4n(CCNCCN(C)C)c3nc2cc1C .
Return: 42.5% (inactive)

Enquiry: Please report the recorded growth for COc1cccc(-c2nc(Nc3ccc(S(N)(=O)=O)cc3)c3ccccc3n2)c1 .
Return: 33.7% (inactive)

Enquiry: Please report the recorded growth for CC(=O)OC[C@@]1(C)C2CC[C@]3(C)C(CC=C4C5CC(C)(C)CC[C@]5(C(=O)Nc5ccc(Br)cc5)CC[C@]43C)[C@@]2(C)C[C@@H](OC(C)=O)[C@@H]1OC(C)=O (some centres not stated) .
Return: 66.1% (inactive)

====

- Test system: SK-MEL-2 melanoma
- Assay notes: NCI-60 one-dose screen, 48 h
- Experimental setup: 10 µM unless noted
Compounds without any hit were thinned out: in the full panel of roughly 83,000, 20% have a hit. The source made the active and inactive calls. Rule for the calls: active = growth percent below 10; inactive = the rest.
Choose one outcome from this list and give only that: Yes = active, No = inactive

Record excerpt, results attached:
O=C(/C=C/c1ccc(-c2ccccc2)cc1)c1nc2ccccc2n1Cc1ccc(Br)cc1 = No
COc1cc2oc(-c3cccc(NC(=O)[C@H](CC(N)=O)NC(=O)OC(C)(C)C)c3)cc(=O)c2c(OC)c1OC = No
Cc1ccccc1[C@H]1C(C(=O)c2ccc(Cl)cc2)C2(N[C@@H]1c1ccccc1)C(=O)Nc1ccc(Br)cc12 (some centres undefined) = Yes

Enquiry: Can you look up the reported call for Cc1ccc2c(c1)nc(-c1ccccc1)n2CC(=O)N=Nc1c(O)[nH]c2ccc(Br)cc12 for me?
Return: Yes

Enquiry: Can you look up the reported call for CN(C)c1ccnc(CNCCSC2(c3ccc(C(F)(F)F)cc3)c3ccccc3CCc3ccccc32)c1 for me?
Return: Yes

Enquiry: Can you look up the reported call for CCOC(=O)C(N=Nc1ccc(S(=O)(=O)N=C(N)N)cc1)C(C)=O (centres undefined) for me?
Return: No

Enquiry: Can you look up the reported call for Cc1nc(Nc2ncc(C(=O)Nc3c(C)cccc3Cl)s2)cc(N2CCN(CCCNC(=O)COc3ccc(C4CCC(=O)NC4=O)cc3)CC2)n1 (centres undefined) for me?
Return: No

Enquiry: Can you look up the reported call for COc1ccc(C2CC(c3ccc(S(=O)(=O)NCCNc4nc(Nc5ccc(F)cc5)nc(N(C)C)n4)cc3)=Nc3c(N)nc(N)nc3N2)cc1 (centres undefined) for me?
Return: No

Enquiry: Can you look up the reported call for COc1cc(OC)c2c3nc4cc(C)c(C)cc4nc3n(CCN(C)C)c2c1 for me?
Return: No

Enquiry: Can you look up the reported call for COc1ccc(C(=O)/C=C/c2cccnc2)cc1S(N)(=O)=O for me?
Return: No

Enquiry: Can you look up the reported call for S=C(NCCc1ccccc1)Nc1ccc(OCc2nc3ccccc3[nH]2)cc1 for me?
Return: No

Enquiry: Can you look up the reported call for COc1ccc(-c2cc(C(=O)NCc3ccccc3)nn2-c2ccc(S(C)(=O)=O)cc2)cc1OC for me?
Return: No

Enquiry: Can you look up the reported call for COc1ccc(-c2ccnc(SCc3cc4ccccc4[nH]c3=O)n2)cc1OC for me?
Return: No

Enquiry: Can you look up the reported call for C=C1CC[C@@H]2[C@]3(C)COC(c4cn[nH]c4-c4ccc(C)cc4)O[C@@H]3CC[C@@]2(C)[C@@H]1C/C=C1/C(=O)OCC1O (some centres undefined) for me?
Return: No

Enquiry: Can you look up the reported call for C[C@H]1CN(C(=O)c2ccc3c(NNC(=O)c4ccncn4)nc4cc(F)c(F)cc4n23)CCN1 for me?
Return: No

Enquiry: Can you look up the reported call for COc1ccc(/C=C/c2nc3ccccc3c(=O)n2CC(=O)Nc2ccc(OC)cc2)cc1 for me?
Return: No

Enquiry: Can you look up the reported call for N#Cc1c(-c2cccnc2)cc(-c2ccc3ccccc3c2)[nH]c1=O for me?
Return: No

Enquiry: Can you look up the reported call for CC12CC[C@@H]3[C@]4(C)COC(c5cn[nH]c5-c5cccc(Cl)c5)O[C@@H]4CC[C@@]3(C)[C@@H]1CC(C1=CCOC1=O)O2 (some centres undefined) for me?
Return: No

Enquiry: Can you look up the reported call for CC(=O)/C=C/c1cccc2c1C(=O)NC(C)(c1cc3cc(Br)ccc3oc1=O)N2 (centres undefined) for me?
Return: Yes

Enquiry: Can you look up the reported call for C=C1CCC2C3(C)COC(c4ccccc4)OC3CCC2(C)C1CC(Sc1ccccc1)C1=CCOC1=O (centres undefined) for me?
Return: No

Enquiry: Can you look up the reported call for Cn1cc(-c2cc3nc(-c4c[nH]c5ccc(Cl)cc45)cc(N)n3n2)c2ccccc21 for me?
Return: Yes

Enquiry: Can you look up the reported call for Nc1n[nH]c2cccc(C#Cc3cccc(NC(=O)c4cccc(Cl)c4)c3)c12 for me?
Return: No

Enquiry: Can you look up the reported call for O=C(N=Nc1c(O)[nH]c2ccc([N+](=O)[O-])cc12)c1ccc2nc(-c3ccccc3)[nH]c2c1 for me?
Return: No

Enquiry: Can you look up the reported call for CSc1ccccc1NC(=O)c1ccc2nnn(/C(C#N)=C/c3ccccn3)c2c1 for me?
Return: Yes

Enquiry: Can you look up the reported call for CCOc1ccc(C(=O)NC(=S)Nc2ccc(S(N)(=O)=O)cc2)cc1 for me?
Return: No

Enquiry: Can you look up the reported call for COc1ccc(C(=O)/C=C/c2ccc(Oc3nc(Nc4ccc(F)cc4)nc(N(C)C)n3)c(OC)c2)cc1 for me?
Return: Yes

Enquiry: Can you look up the reported call for Cn1cc(-c2cc(N)n3nc(-c4cn(C)c5ccccc45)cc3n2)c2cc(Cl)ccc21 for me?
Return: Yes

Enquiry: Can you look up the reported call for COc1ccc2[nH]cc(-c3nc(N)nnc3-c3cn(C)c4ncccc34)c2c1 for me?
Return: No

Enquiry: Can you look up the reported call for CC1(C)CC[C@]2(C(=O)O)CC[C@]3(C)C(=CCC4[C@@]5(C)C[C@@H](O)[C@@H]6OC(c7ccccc7F)OC[C@@]6(C)C5CC[C@]43C)C2C1 (some centres undefined) for me?
Return: Yes
